- System: LG0703-F948-PDC spheroids with HUVEC/MSC, viability
- EXPERIMENT DESCRIPTION: Anticancer human tumor LG0703-F948-PDC patient-derived lung adenocarcinoma cell line growth inhibition [IpAb]; active = viability on the fitted dose curve at most 10% of control; inactive = the rest
- RECORDED CONDITIONS: second compound 0.0316 µM; first compound 10 µM
API: response.call in active, inactive

| COMPOUND | DISCRETE LABEL |
| --- | --- |
| Cn1ncc(Cl)c1-c1cc(C(=O)NC(CN)Cc2cccc(F)c2)sc1Cl (configuration not stated) + CCN1CCN(Cc2ccc(Nc3ncc(F)c(-c4cc(F)c5nc(C)n(C(C)C)c5c4)n3)nc2)CC1 | active |
| Cc1nc(NC(=O)N2CCCC2C(N)=O)sc1-c1ccnc(C(C)(C)C(F)(F)F)c1 (configuration not stated) + CCN1CCN(Cc2ccc(Nc3ncc(F)c(-c4cc(F)c5nc(C)n(C(C)C)c5c4)n3)nc2)CC1 | active |
| CCCS(=O)(=O)Nc1ccc(F)c(C(=O)c2c[nH]c3ncc(-c4ccc(Cl)cc4)cc23)c1F + CCN1CCN(Cc2ccc(Nc3ncc(F)c(-c4cc(F)c5nc(C)n(C(C)C)c5c4)n3)nc2)CC1 | inactive |
| CC1(C)CCC(CN2CCN(c3ccc(C(=O)NS(=O)(=O)c4ccc(NCC5CCOCC5)c([N+](=O)[O-])c4)c(Oc4cnc5[nH]ccc5c4)c3)CC2)=C(c2ccc(Cl)cc2)C1 + CCN1CCN(Cc2ccc(Nc3ncc(F)c(-c4cc(F)c5nc(C)n(C(C)C)c5c4)n3)nc2)CC1 | inactive |
| C=CC(=O)N1CCN(c2nc(=O)n(-c3c(C)ccnc3C(C)C)c3nc(-c4c(O)cccc4F)c(F)cc23)C(C)C1 (configuration not stated) + CCN1CCN(Cc2ccc(Nc3ncc(F)c(-c4cc(F)c5nc(C)n(C(C)C)c5c4)n3)nc2)CC1 | inactive |
| Cn1nccc1Nc1nccc(-c2ccn(C(CO)c3ccc(Cl)c(F)c3)c(=O)c2)n1 (configuration not stated) + CCN1CCN(Cc2ccc(Nc3ncc(F)c(-c4cc(F)c5nc(C)n(C(C)C)c5c4)n3)nc2)CC1 | inactive |

Problem: Given C=CCn1c(=O)c2cnc(Nc3ccc(N4CCN(C)CC4)cc3)nc2n1-c1cccc(C(C)(C)O)n1 + CCN1CCN(Cc2ccc(Nc3ncc(F)c(-c4cc(F)c5nc(C)n(C(C)C)c5c4)n3)nc2)CC1 , state the outcome it received in this test.
Result: active

* * *

- System: LG0703-F948-PDC spheroids with HUVEC/MSC, viability
- EXPERIMENT DESCRIPTION: Anticancer human tumor LG0703-F948-PDC cell line growth inhibition [IpAb];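 note: spheroids exposed to compounds for seven days before readout; T/C percent relative to DMSO vehicle wells set as 100% viability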
- RECORDED CONDITIONS: second compound 0.1 µM; first compound 10 µM; stronger effect = lower value
READOUT NAME: viability, T/C (%)
Dear colleague, please return just the value in %, with no unit written.

Problem: State the recorded viability, T/C for this entry: Cc1nc(NC(=O)N2CCCC2C(N)=O)sc1-c1ccnc(C(C)(C)C(F)(F)F)c1 (centres undefined) + CCN1CCN(Cc2ccc(Nc3ncc(F)c(-c4cc(F)c5nc(C)n(C(C)C)c5c4)n3)nc2)CC1
Result: 3.21

Problem: State the recorded viability, T/C for this entry: Cn1nccc1Nc1nccc(-c2ccn(C(CO)c3ccc(Cl)c(F)c3)c(=O)c2)n1 (centres undefined) + CC(C)NCC(C(=O)N1CCN(c2ncnc3c2C(C)CC3O)CC1)c1ccc(Cl)cc1
Result: 37.6

Problem: State the recorded viability, T/C for this entry: CC1(C)CCC(CN2CCN(c3ccc(C(=O)NS(=O)(=O)c4ccc(NCC5CCOCC5)c([N+](=O)[O-])c4)c(Oc4cnc5[nH]ccc5c4)c3)CC2)=C(c2ccc(Cl)cc2)C1 + CC(C)NCC(C(=O)N1CCN(c2ncnc3c2C(C)CC3O)CC1)c1ccc(Cl)cc1
Result: 10.8

Problem: State the recorded viability, T/C for this entry: Cn1ncc(Cl)c1-c1cc(C(=O)NC(CN)Cc2cccc(F)c2)sc1Cl (centres undefined) + CCN1CCN(Cc2ccc(Nc3ncc(F)c(-c4cc(F)c5nc(C)n(C(C)C)c5c4)n3)nc2)CC1
Result: 0.13
